- Test system: HeLa Kyoto
- Assay summary: solubility change mitosis vs G1/S (difference of NP-40 vs SDS log2 ratios) (log2 ratio difference); higher = more soluble in mitosis

| Query sequence | solubility change mitosis (log2) |
| --- | --- |
| MDQCVTVERELEKVLHKFSGYGQLCERGLEELIDYTGGLKHEILQSHGQDAELSGTLSLVLTQCCKRIKDTVQKLASDHKDIHSSVSRVGKAIDKNFDSDISSVGIDGCWQADSQRLLNEVMVEHFFRQGMLDVAEELCQESGLSVDPSQKEPFVELNRILEALKVRVLRPALEWAVSNREMLIAQNSSLEFKLHRLYFISLLMGGTTNQREALQYAKNFQPFALNHQKDIQVLMGSLVYLRQGIENSPYVHLLDANQWADICDIFTRDACALLGLSVESPLSVSFSAGCVALPALINIKAVIEQRQCTGVWNQKDELPIEVDLGKKCWYHSIFACPILRQQTTDNNPPMKLVCGHIISRDALNKMFNGSKLKCPYCPMEQSPGDAKQIFF [RMND5A] | -0.047 |
| MTLQWAAVATFLYAEIGLILIFCLPFIPPQRWQKIFSFNVWGKIATFWNKAFLTIIILLIVLFLDAVREVRKYSSVHTIEKSSTSRPDAYEHTQMKLFRSQRNLYISGFSLFFWLVLRRLVTLITQLAKELSNKGVLKTQAENTNKAAKKFMEENEKLKRILKSHGKDEECVLEAENKKLVEDQEKLKTELRKTSDALSKAQNDVMEMKMQSERLSKEYDQLLKEHSELQDRLERGNKKRL [BCAP29] | -0.00377 |
| MNPSMKQKQEEIKENIKNSSVPRRTLKMIQPSASGSLVGRENELSAGLSKRKHRNDHLTSTTSSPGVIVPESSENKNLGGVTQESFDLMIKENPSSQYWKEVAEKRRKALYEALKENEKLHKEIEQKDNEIARLKKENKELAEVAEHVQYMAELIERLNGEPLDNFESLDNQEFDSEEETVEDSLVEDSEIGTCAEGTVSSSTDAKPCI [GMNN] | -0.0263 |

---

In this section, each of the substances is paired with its reported melting temperature.
- System: HeLa Kyoto
- Assay summary: melting temperature (median over replicates), in situ; higher = more thermally stable
- Condition parameters: cell cycle stage: mitosis
Endpoint name: melting temperature (°C)

| Substance | Endpoint name | Value units | Numeric readout |
| --- | --- | --- | --- |
| MPGPAAGSRARVYAEVNSLRSREYWDYEAHVPSWGNQDDYQLVRKLGRGKYSEVFEAINITNNERVVVKILKPVKKKKIKREVKILENLRGGTNIIKLIDTVKDPVSKTPALVFEYINNTDFKQLYQILTDFDIRFYMYELLKALDYCHSKGIMHRDVKPHNVMIDHQQKKLRLIDWGLAEFYHPAQEYNVRVASRYFKGPELLVDYQMYDYSLDMWSLGCMLASMIFRREPFFHGQDNYDQLVRIAKVLGTEELYGYLKKYHIDLDPHFNDILGQHSRKRWENFIHSENRHLVSPEALDLLDKLLRYDHQQRLTAKEAMEHPYFYPVVKEQSQPCADNAVLSSGLTAAR [CSNK2A2] | melting temperature | °C | 50.3 |
| MASGTTTTAVKIGIIGGTGLDDPEILEGRTEKYVDTPFGKPSDALILGKIKNVDCVLLARHGRQHTIMPSKVNYQANIWALKEEGCTHVIVTTACGSLREEIQPGDIVIIDQFIDRTTMRPQSFYDGSHSCARGVCHIPMAEPFCPKTREVLIETAKKLGLRCHSKGTMVTIEGPRFSSRAESFMFRTWGADVINMTTVPEVVLAKEAGICYASIAMATDYDCWKEHEEAVSVDRVLKTLKENANKAKSLLLTTIPQIGSTEWSETLHNLKNMAQFSVLLPRH [MTAP] | melting temperature | °C | 60.5 |
| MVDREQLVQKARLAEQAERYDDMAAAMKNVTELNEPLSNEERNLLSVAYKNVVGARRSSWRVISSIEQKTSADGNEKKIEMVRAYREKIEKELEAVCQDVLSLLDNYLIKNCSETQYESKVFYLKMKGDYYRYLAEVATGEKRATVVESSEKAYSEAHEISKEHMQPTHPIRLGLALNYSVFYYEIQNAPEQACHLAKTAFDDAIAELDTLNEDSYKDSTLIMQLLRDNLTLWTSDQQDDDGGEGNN [YWHAG] | melting temperature | °C | 54.8 |
| HNRNPU | melting temperature | °C | 49.5 |
| MAGAGSAAVSGAGTPVAGPTGRDLFAEGLLEFLRPAVQQLDSHVHAVRESQVELREQIDNLATELCRINEDQKVALDLDPYVKKLLNARRRVVLVNNILQNAQERLRRLNHSVAKETARRRAMLDSGIYPPGSPGK [SNAPIN] | melting temperature | °C | 54.5 |
| MTTLDDKLLGEKLQYYYSSSEDEDSDHEDKDRGRCAPASSSVPAEAELAGEGISVNTGPKGVINDWRRFKQLETEQREEQCREMERLIKKLSMTCRSHLDEEEEQQKQKDLQEKISGKMTLKEFAIMNEDQDDEEFLQQYRKQRMEEMRQQLHKGPQFKQVFEISSGEGFLDMIDKEQKSIVIMVHIYEDGIPGTEAMNGCMICLAAEYPAVKFCKVKSSVIGASSQFTRNALPALLIYKGGELIGNFVRVTDQLGDDFFAVDLEAFLQEFGLLPEKEVLVLTSVRNSATCHSEDSDLEID [PDCL] | melting temperature | °C | 51.5 |
